These data points were gathered from the supplement of paper PMC7877785.

Below is a list of entries, each paired with its recorded self-splicing fitness (ln) value.
Test: self-splicing fitness, log relative to wild type (ln ratio); higher = more splicing; Tetrahymena group I intron in knt gene, E. coli kanamycin selection, DiMSum; sequences stand for … in CUCUCU…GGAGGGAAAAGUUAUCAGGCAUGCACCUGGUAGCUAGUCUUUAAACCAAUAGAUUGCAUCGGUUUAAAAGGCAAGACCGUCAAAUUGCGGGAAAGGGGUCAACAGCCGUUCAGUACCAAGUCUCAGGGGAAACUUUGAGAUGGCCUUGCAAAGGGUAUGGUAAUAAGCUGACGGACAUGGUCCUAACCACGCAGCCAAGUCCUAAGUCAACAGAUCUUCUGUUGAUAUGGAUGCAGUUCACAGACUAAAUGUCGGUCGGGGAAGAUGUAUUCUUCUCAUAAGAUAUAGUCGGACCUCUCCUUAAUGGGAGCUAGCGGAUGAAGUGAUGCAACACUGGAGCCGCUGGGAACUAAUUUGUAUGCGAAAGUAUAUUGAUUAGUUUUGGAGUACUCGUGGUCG;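 note: selection with 25 µg/mL kanamycin versus none on LB agar overnight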
Details: 37 °C
Write the value as a bare number.

These recorded examples may help you get a feel for the data.
# residue codes, endpoint name, recorded number
data = [
    ("ACAAAGCAAUAUUACGUCUC", "self-splicing fitness (ln)", -2.09),
    ("UCUAAGCAAUAUUACGCGCU", "self-splicing fitness (ln)", -1.6),
    ("GUACAGCAAUAUUACGUACA", "self-splicing fitness (ln)", -1.63),
    ("GGGGAGCAAUAUUACGGGAG", "self-splicing fitness (ln)", -1.53),
    ("ACAAAGCAAUAUUACGUUGG", "self-splicing fitness (ln)", -1.57),
    ("UGGCAGCAAUAUUACGACCC", "self-splicing fitness (ln)", -0.655),
]

Note to self: self-splicing fitness (ln) recorded for CAACAGCAAUAUUACGAGGA was -0.828

Note to self: self-splicing fitness (ln) recorded for GCACAGCAAUAUUACGGGUC was -1.62

Note to self: self-splicing fitness (ln) recorded for CCGAAGCAAUAUUACGUUAG was -0.908

Note to self: self-splicing fitness (ln) recorded for CCUAAGCAAUAUUACGCGUA was -2.19

Note to self: self-splicing fitness (ln) recorded for UUAAAGCAAUAUUACGUAUU was -2.75

* * *

Assay: self-splicing fitness, log relative to wild type (ln ratio); higher = more splicing; Tetrahymena group I intron in knt gene, E. coli kanamycin selection, DiMSum; sequences stand for … in CUCUCU…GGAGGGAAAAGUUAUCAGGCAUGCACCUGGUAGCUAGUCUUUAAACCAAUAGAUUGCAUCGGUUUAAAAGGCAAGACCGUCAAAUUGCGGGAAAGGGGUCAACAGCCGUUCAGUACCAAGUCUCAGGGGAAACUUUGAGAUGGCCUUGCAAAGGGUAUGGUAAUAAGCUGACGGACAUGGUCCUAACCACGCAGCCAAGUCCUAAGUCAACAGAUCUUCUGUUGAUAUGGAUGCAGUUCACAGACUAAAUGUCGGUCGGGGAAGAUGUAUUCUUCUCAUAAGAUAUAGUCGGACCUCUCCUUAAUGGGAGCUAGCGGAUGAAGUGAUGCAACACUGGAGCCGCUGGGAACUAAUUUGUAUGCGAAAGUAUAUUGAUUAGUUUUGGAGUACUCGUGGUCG
Settings: 30 °C
endpoint name: self-splicing fitness (ln)
Write the value as a bare number.

These recorded examples may help you get a feel for the data.
# residue codes, self-splicing fitness (ln)
rows = [
    ("GUGAAGCAAUAUUACGGCUG", -0.541),
    ("UUUGAGCAAUAUUACGUAUG", -1.73),
    ("AGAAAGCAAUAUUACGUAUU", -2.59),
    ("AAAAAGCAAUAUUACGGUCU", -0.167),
    ("UAAUAGCAAUAUUACGUGUG", -1.6),
    ("UCUUAGCAAUAUUACGGUUG", -3.34),
]

Note to self: self-splicing fitness (ln) recorded for CCUUAGCAAUAUUACGGGCA was -3.91

Note to self: self-splicing fitness (ln) recorded for UCCAAGCAAUAUUACGUCCG was -2.76
